# tgt: T1, human iRhom2 (inactive rhomboid protein 2, isoform 1), endogenously expressed on human cells (human, UniProt Q6PJF5 1-856)
# T1 sequence: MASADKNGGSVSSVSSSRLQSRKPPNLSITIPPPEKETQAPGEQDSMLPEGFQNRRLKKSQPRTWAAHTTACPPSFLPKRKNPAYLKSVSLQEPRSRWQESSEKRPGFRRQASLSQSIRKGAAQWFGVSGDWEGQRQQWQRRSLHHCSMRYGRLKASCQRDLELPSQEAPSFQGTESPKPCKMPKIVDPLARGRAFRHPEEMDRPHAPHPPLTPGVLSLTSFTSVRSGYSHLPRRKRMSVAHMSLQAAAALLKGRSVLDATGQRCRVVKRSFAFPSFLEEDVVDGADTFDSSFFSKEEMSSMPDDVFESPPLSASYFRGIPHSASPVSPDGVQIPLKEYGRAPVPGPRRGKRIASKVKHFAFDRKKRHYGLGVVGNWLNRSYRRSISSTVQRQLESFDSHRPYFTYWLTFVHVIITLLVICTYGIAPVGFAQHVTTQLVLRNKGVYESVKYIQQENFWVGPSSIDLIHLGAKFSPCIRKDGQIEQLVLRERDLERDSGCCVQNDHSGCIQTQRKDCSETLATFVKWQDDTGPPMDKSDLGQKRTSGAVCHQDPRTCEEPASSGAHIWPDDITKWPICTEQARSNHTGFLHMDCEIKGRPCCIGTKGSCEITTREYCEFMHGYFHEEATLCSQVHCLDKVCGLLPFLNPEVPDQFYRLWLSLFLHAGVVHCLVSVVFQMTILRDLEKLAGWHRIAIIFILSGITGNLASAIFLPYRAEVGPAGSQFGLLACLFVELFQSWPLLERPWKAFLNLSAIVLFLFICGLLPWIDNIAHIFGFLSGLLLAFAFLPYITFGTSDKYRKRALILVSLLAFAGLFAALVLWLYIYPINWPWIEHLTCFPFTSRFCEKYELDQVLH
# protocol: cell-based or functional assay
Collected inhibition of PMA-induced release of TNFα from U-937 cells, 1 µg/ml values appear next to each entry.
measure: inhibition of PMA-induced release of TNFα from U-937 cells, 1 µg/ml

# binder, result
rows = [
    ("antibody 34 (antibody, V domains shown, Mouse IgG, kappa light chain; also called clone #34; m34) VH: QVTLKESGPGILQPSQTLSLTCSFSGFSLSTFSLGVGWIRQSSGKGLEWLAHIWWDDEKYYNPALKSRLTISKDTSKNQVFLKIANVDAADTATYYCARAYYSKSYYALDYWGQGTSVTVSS VL: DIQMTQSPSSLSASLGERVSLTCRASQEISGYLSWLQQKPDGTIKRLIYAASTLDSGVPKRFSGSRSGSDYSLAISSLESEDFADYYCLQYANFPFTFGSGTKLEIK", "68.6 % inhibition"),
    ("antibody 22 (antibody, V domains shown, Mouse IgG, kappa light chain; also called clone #22; m22) VH: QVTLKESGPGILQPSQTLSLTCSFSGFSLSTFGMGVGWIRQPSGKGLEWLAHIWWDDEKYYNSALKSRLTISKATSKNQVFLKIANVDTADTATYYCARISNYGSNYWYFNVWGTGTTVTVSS VL: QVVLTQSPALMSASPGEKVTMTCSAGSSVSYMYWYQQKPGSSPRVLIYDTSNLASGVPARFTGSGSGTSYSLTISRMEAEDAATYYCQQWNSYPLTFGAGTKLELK", "86.1 % inhibition"),
    ("antibody 3 (antibody, V domains shown, Mouse IgG, kappa light chain; also called clone #3; purified antibody 3) VH: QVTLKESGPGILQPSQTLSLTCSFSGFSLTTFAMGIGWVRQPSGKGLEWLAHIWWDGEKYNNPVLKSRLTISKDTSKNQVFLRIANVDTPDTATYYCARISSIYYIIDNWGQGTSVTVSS VL: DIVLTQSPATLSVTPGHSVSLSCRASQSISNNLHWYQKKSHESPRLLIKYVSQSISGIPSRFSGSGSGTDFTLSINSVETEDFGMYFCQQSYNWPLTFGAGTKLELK", "65.9 % inhibition"),
    ("antibody 5 (antibody, V domains shown, Mouse IgG, kappa light chain; also called clone #5; purified antibody 5) VH: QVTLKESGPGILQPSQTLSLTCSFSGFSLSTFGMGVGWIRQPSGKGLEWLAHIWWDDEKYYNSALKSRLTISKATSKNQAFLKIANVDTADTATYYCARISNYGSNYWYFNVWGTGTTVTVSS VL: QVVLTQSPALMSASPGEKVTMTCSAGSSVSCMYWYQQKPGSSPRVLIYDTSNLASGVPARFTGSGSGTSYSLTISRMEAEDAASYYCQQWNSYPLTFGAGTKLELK", "63.6 % inhibition"),
    ("antibody 43 (antibody, V domains shown, Mouse IgG, kappa light chain; also called clone #43) VH: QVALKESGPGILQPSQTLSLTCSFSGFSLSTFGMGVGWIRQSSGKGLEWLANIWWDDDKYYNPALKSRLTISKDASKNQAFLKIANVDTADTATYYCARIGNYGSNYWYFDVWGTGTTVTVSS VL: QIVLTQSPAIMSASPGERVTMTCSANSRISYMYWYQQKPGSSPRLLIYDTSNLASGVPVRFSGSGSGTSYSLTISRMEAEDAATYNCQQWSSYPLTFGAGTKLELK", "78.3 % inhibition"),
]
